Study system: UniProtKB Q9NYK1
Sequence (Q9NYK1 27-1049): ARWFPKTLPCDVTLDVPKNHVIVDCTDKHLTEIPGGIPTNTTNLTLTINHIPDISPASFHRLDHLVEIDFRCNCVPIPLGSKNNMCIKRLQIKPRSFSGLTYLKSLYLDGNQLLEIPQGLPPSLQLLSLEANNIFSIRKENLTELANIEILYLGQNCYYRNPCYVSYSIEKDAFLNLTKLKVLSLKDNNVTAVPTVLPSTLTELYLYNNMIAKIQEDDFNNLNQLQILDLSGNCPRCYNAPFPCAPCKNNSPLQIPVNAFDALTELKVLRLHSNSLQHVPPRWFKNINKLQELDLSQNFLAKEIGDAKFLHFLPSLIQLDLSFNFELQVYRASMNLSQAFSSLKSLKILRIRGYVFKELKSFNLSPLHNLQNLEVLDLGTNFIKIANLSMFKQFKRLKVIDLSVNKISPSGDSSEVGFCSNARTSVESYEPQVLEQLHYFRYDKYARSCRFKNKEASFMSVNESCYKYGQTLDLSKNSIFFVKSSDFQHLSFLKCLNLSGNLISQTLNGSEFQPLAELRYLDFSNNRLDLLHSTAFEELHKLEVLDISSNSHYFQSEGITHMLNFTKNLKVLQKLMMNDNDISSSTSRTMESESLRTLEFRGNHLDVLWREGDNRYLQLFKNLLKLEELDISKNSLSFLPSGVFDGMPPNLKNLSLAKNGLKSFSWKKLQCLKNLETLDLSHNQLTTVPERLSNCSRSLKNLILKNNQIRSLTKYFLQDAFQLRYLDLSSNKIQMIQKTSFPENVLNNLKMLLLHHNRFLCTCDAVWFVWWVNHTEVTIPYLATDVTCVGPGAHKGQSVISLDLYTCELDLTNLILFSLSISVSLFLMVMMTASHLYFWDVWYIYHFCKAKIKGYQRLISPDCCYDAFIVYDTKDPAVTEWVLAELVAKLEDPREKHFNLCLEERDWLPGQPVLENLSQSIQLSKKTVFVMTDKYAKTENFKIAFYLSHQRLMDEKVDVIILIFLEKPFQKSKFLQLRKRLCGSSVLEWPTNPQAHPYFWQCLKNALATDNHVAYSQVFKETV
Assay procedure: TLR7 inhibition reporter assay (HEK-Blue SEAP)
Type: cell-based
Test conditions: HEK-Blue human TLR7 cells, gardiquimod 7.5 μM
pIC50: −log10 of the molar value.
Rule: pIC50 under 9 gives rule not met, otherwise rule met.

Cc1c(-c2[nH]c3ccc(N4C[C@H](C)N(C(C)C)C[C@H]4C)nc3c2C(C)C)cn2ncnc2c1C ... rule not met
CCN(C)CC(=O)N1CCN(c2ccc3[nH]c(-c4cn5ncnc5c(C)c4N)c(C(C)C)c3n2)C[C@H]1C ... rule met
Cc1c(-c2[nH]c3ccc(N4C[C@H](C)N(CCC(N)=O)C[C@H]4C)nc3c2C(C)C)cn2ncnc2c1C ... rule not met

In: API: above_or_equal(metric=pIC50, cutoff=9) for item Cc1c(-c2[nH]c3ccc(N4C[C@@H](C)N(C(=O)CCN5CCC(F)(F)C5)C[C@@H]4C)nc3c2C(C)C)cn2ncnc2c1C
Out: rule not met

* * *

Study system: human TLR9 (Homo sapiens (Human), UniProt Q9NR96)
Sequence (Q9NR96 26-1032): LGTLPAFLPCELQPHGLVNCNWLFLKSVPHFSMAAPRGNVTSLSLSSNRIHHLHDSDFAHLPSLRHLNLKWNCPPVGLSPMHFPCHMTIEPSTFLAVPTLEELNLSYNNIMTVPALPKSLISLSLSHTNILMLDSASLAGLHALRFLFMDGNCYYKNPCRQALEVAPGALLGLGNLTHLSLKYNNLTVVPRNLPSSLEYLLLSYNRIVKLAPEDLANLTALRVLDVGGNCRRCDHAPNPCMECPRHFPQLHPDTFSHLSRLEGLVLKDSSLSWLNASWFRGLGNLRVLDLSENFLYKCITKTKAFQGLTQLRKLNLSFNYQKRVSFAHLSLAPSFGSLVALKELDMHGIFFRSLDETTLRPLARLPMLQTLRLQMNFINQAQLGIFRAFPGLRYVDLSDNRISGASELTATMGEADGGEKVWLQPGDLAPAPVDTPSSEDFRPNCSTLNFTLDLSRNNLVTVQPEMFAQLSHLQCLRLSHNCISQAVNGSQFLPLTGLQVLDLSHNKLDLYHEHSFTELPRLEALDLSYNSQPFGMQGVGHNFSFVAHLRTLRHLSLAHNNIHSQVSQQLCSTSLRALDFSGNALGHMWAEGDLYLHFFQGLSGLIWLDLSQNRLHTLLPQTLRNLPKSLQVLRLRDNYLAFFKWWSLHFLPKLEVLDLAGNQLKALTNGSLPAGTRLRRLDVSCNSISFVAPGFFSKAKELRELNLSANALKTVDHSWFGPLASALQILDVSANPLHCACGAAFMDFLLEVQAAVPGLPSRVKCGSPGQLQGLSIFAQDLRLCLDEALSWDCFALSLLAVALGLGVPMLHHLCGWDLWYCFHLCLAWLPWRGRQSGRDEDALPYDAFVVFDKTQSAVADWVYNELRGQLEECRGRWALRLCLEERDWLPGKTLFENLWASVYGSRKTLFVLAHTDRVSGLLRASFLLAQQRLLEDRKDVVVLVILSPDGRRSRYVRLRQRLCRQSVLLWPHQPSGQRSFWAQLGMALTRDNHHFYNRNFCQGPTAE
Assay procedure: TLR9 inhibition reporter assay (HEK-Blue SEAP);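 further: SEAP driven by an IFN-β minimal promoter with NF-κB and AP-1 sites, read after 22 h, compounds dosed 0.05 nM–50 µM, inhibition scaled between agonist plus DMSO and reference-inhibitor wells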
Test conditions: read-out: TLR9 IC50; HEK-Blue human TLR9 cells, ODN2006 5 nM
Reported metric: IC50 (µM)
Value expressed in µM; do not type the unit.

In: Provide the reported IC50 (system: human TLR9 (Homo sapiens (Human), UniProt Q9NR96)) for Cc1c(-c2[nH]c3ccc(C4CCC(N5CC6(CCOC6)C5)CC4)nc3c2C(C)C)cn2ncnc2c1C (stereo not drawn) [Example 1061]
Out: 3.18

In: Provide the reported IC50 (system: human TLR9 (Homo sapiens (Human), UniProt Q9NR96)) for Cc1c(-c2[nH]c3ccc(N4CCN(C(=O)CN(C)C(C)C)CC4)nc3c2C(C)C)cn2ncnc2c1C [Example 872]
Out: 9.54

In: Provide the reported IC50 (system: human TLR9 (Homo sapiens (Human), UniProt Q9NR96)) for CCCN(C)CC(=O)N1CCN(c2ccc3[nH]c(-c4cn5ncnc5c(C)c4C)c(C(C)C)c3n2)CC1 [Example 873]
Out: 12.8

In: Provide the reported IC50 (system: human TLR9 (Homo sapiens (Human), UniProt Q9NR96)) for Cc1c(-c2[nH]c3ccc(N4CCN(C(=O)CN5CC6(CCOC6)C5)CC4)nc3c2C(C)C)cn2ncnc2c1C [Example 956]
Out: 9.65

In: Provide the reported IC50 (system: human TLR9 (Homo sapiens (Human), UniProt Q9NR96)) for Cc1c(-c2[nH]c3ccc(C4CCC(N5CC(O)C5)CC4)nc3c2C(C)C)cn2ncnc2c1C (stereo not drawn) [Example 1046]
Out: 2.5

In: Provide the reported IC50 (system: human TLR9 (Homo sapiens (Human), UniProt Q9NR96)) for CCC[C@H]1CNCCN1c1ccc2[nH]c(-c3cn4ncnc4c(C)c3C)c(C(C)C)c2n1 [Example 986]
Out: 2.82

* * *

Study system: UniProt:Q9NR97
Assay procedure: TLR8 inhibition reporter assay (HEK-Blue SEAP)
Test conditions: read-out: TLR8 IC50; HEK-Blue cells overexpressing human TLR8, SEAP reporter, R848 15.9 μM
Reported metric: IC50

Field: example entries. Status: answers known.
COc1cc(-c2[nH]c3ccc(OC4CN(C5CCOCC5)C4)nc3c2C(C)C)cn2ncnc12 ... > 3120 nM
Cc1c(-c2[nH]c3ccc(C4CN(C(C)C)CCO4)nc3c2C(C)C)cn2ncnc2c1C (stereo not drawn) ... 8.2 nM
CC(C)c1c(-c2cn(C)c3ncccc23)[nH]c2ccc(CCC3CNC3)nc12 ... 31 nM
CCN(CC1(S(C)(=O)=O)CC1)C1CCC(c2ccc3[nH]c(-c4cn5ncnc5c(C)c4C)c(C(C)C)c3n2)CC1 (stereo not drawn) ... 14 nM
COc1ncc(CN(C)C2CCC(c3ccc4[nH]c(-c5cn6ncnc6c(C)c5C)c(C(C)C)c4n3)CC2)cn1 (stereo not drawn) [Example 395] ... 10 nM
Cc1cc(-c2[nH]c3ccc(C4CCNCC4)nc3c2C(C)C)cn2nnnc12 ... 6 nM
COc1cc(-c2[nH]c3ccc(CCC4CN(CCS(C)(=O)=O)C4)nc3c2C(C)C)cn2ncnc12 ... 28 nM
Cc1c(-c2[nH]c3ccc(C4CCC(NCC5CCCCS5(=O)=O)CC4)nc3c2C(C)C)cn2ncnc2c1C (stereo not drawn) [Example 464] ... 0.85 nM

In: Provide the reported IC50 (system: UniProt:Q9NR97) for Cc1c(-c2[nH]c3ccc(N4[C@@H]5CC[C@H]4CN(C(=O)CN(C)C)C5)nc3c2C(C)C)cn2ncnc2c1C
Out: 4.1 nM

* * *

Study system: human TLR8 (Homo sapiens (Human))
Assay procedure: TLR8 inhibition reporter assay (HEK-Blue SEAP)
Test conditions: read-out: TLR8 IC50; HEK-Blue cells overexpressing human TLR8, R848 15.9 μM stimulation, SEAP reporter
Reported metric: pIC50
Please express pIC50 as -log10 of the molar concentration.

Cc1c(-c2[nH]c3ccc(C4CCC(N5CCC(F)(F)CC5)CC4)nc3c2C(C)C)cn2ncnc2c1C (centres unmarked) [Example 381] ... 8.26
COc1cc(-c2[nH]c3ccc(N4CCN(Cc5cn(C)nn5)CC4)nc3c2C(C)C)cn2ncnc12 [Example 129] ... 8.89
COc1cc(-c2[nH]c3cc(C)c(C4CCC(NC5(C)COC5)CC4)nc3c2C(C)C)cn2ncnc12 (centres unmarked) [Example 311] ... 7.36
COc1cc(-c2[nH]c3ccc(C4CCC(N5CC6(C5)CS(=O)(=O)C6)CC4)nc3c2C(C)C)cn2ncnc12 (centres unmarked) [Example 248] ... 7.89
Cc1c(-c2[nH]c3ccc(C4CCC(N5CCC[C@H]5CO)CC4)nc3c2C(C)C)cn2ncnc2c1C (some centres unmarked) [Example 393] ... 8.89
CC(C)c1c(-c2cn(C)c3ncncc23)[nH]c2ccc(N3CCN(C(=O)CCN(C)C)CC3)nc12 [Example 124] ... 8.33
COc1cc(-c2[nH]c3ccc(N4CCN(C5CCOCC5)CC4)nc3c2C(C)C)cn2ncnc12 [Example 104] ... 9.12
Cc1c(-c2[nH]c3ccc(N4CCN(CCN5CCOCC5)C(=O)C4)nc3c2C(C)C)cn2ncnc2c1C [Example 155] ... 7.25
Cc1c(-c2[nH]c3ccc(C4CCC(N5CCC[C@H]5CO)CC4)nc3c2C(C)C)cn2ncnc2c1C (some centres unmarked) [Example 392] ... 8.21
COc1cc(-c2[nH]c3ccc(N4CC(NCC(=O)N(C)C)C4)nc3c2C(C)C)cn2ncnc12 [Example 18] ... 7.85

In: Return value of pIC50 for input CC(C)c1c(-c2cn(CC#N)c3ncccc23)[nH]c2ccc(C3CCC(NC4CCCOC4)CC3)nc12 (centres unmarked) [Example 274] , no commentary.
Out: 8.43

* * *

Study system: human TLR8 (Homo sapiens (Human), UniProt Q9NR97)
Sequence (Q9NR97 27-1041): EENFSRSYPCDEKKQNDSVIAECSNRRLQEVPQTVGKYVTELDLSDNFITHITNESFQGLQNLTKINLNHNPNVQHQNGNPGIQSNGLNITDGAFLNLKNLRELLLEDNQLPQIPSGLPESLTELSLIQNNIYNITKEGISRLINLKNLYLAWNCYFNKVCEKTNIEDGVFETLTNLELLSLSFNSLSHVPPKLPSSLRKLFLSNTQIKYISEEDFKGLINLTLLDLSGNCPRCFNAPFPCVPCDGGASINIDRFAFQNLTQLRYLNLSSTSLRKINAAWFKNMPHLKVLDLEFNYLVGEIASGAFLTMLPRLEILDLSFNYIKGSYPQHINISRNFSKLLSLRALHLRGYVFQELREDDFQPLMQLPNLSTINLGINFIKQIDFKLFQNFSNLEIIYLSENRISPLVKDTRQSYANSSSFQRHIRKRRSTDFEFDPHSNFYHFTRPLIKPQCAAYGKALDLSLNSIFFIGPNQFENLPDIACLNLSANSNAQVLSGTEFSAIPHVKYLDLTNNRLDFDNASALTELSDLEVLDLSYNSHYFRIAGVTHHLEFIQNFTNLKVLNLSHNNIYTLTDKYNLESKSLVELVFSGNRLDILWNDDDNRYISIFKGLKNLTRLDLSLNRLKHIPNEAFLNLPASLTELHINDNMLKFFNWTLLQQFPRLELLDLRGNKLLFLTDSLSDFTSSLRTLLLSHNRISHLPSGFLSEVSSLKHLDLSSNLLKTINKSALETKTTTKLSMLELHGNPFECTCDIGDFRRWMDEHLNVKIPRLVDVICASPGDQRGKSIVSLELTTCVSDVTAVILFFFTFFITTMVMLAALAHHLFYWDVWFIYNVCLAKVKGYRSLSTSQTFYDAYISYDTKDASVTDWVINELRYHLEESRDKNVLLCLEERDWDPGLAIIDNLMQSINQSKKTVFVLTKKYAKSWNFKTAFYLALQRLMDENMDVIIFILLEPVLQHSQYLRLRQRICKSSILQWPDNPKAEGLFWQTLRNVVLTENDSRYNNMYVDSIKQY
Assay procedure: TLR8 inhibition reporter assay (HEK-Blue SEAP)
Test conditions: read-out: TLR8 IC50; HEK-Blue cells overexpressing human TLR8, SEAP reporter, R848 15.9 μM
Hi! Just check whether IC50 is below 20 nM. Below gives Yes, equal or above gives No.

Cc1c(-c2[nH]c3ccc(C4CCC(N(C)Cc5ncccn5)CC4)nc3c2C(C)C)cn2ncnc2c1C (stereo not drawn) [Example 417] ... Yes

In: Is it true that IC50 reported for COc1cc(-c2[nH]c3ccc(C4CCC(NCCS(C)(=O)=O)C4)nc3c2C(C)C)cn2ncnc12 (stereo not drawn) is less than 20 nM?
Out: No

In: Is it true that IC50 reported for Cc1c(-c2[nH]c3ccc(C4CN(C(=O)CN(C)C)CCO4)nc3c2C(C)C)cn2ncnc2c1C (stereo not drawn) is less than 20 nM?
Out: Yes

In: Is it true that IC50 reported for Cc1cc(-c2[nH]c3ccc(C4CCN(C(=O)CN(C)C)CC4)nc3c2C(C)C)cn(C)c1=O is less than 20 nM?
Out: No

In: Is it true that IC50 reported for Cc1c(-c2[nH]c3ccc(C4CN(CC(N)=O)C4)nc3c2C(C)C)cn2ncnc2c1C is less than 20 nM?
Out: Yes

In: Is it true that IC50 reported for CC(C)c1c(-c2cn(C)c3ncccc23)[nH]c2ccc(CCC3CN(CC4(C)COC4)C3)nc12 is less than 20 nM?
Out: Yes

In: Is it true that IC50 reported for CNC(=O)CN(C)C1CCC(c2ccc3[nH]c(-c4cn5ncnc5c(C)c4C)c(C(C)C)c3n2)CC1 (stereo not drawn) [Example 422] is less than 20 nM?
Out: No

In: Is it true that IC50 reported for COc1cc(-c2[nH]c3ccc(CCC4CNC4)nc3c2C(C)C)cn2ncnc12 is less than 20 nM?
Out: No
